Recorded values, source patent US20220135591A1.

- target: MAGL (recombinant wild-type) (Homo sapiens, UniProt Q99685)
- Sequence (Q99685 1-303): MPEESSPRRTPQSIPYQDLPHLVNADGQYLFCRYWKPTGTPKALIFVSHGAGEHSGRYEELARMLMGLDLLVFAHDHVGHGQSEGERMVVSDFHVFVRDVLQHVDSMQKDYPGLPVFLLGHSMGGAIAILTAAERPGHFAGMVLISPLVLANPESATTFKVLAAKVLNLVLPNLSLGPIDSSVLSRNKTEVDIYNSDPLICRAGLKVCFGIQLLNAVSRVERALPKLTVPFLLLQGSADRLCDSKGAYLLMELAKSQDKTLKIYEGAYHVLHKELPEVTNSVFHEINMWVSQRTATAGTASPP
- method_description: 4-NPA assay: MAGL inhibitory activity by hydrolysis of 4-nitrophenylacetate, absorbance at 405 nm
- test_parameters: 4-NPA assay (values without footnote [b])
Consider the cut-off 300 nM. If the recorded IC50 is strictly smaller, the label is Met; if not, the label is Not met.

Query: Hello, is IC50 of the following compound strictly smaller than 300 nM? Cc1ccc2oc(N3CCN(C(=O)c4ccc(C5(F)CC5)cc4)CC3)nc2n1
Result: Not met

Query: API: query returns whether the compound falls strictly under 300 nM in IC50. Query: CC(C)(C)c1nc(-c2ccc(C(=O)N3CCN(c4nc5nc(Cl)ccc5o4)CC3)cc2)no1
Result: Met

Query: Check if IC50 falls below 300 nM for Cc1ccc2oc(N3CCN(C(=O)c4cnc(N5CCC6(C5)CC6(F)F)cc4C)CC3)nc2n1 (stereo not shown) .
Result: Not met

Query: API: query returns whether the compound falls strictly under 300 nM in IC50. Query: Cc1ccc2oc(N3CCN(C(=O)c4cnc(N5CC(OC(C)C(F)(F)F)C5)c(F)c4Cl)CC3)nc2n1 (stereo not shown)
Result: Met

Query: Below 300 nM on IC50? Entry Cc1ccc2oc(N3CCN(C(=O)c4ccc(-n5cnc(C(C)(C)C)n5)cc4)CC3)nc2n1
Result: Met

Query: For Cc1ccc2oc(N3CCN(C(=O)c4ccc(-c5nnc(C(C)(C)C)o5)cc4)CC3)nc2n1 , is the recorded IC50 below the cut-off of 300 nM?
Result: Met

Query: For Cn1c(CC(C)(C)C)nnc1-c1ccc(C(=O)N2CCN(c3nc4nc(Cl)ccc4o3)CC2)cc1 , is the recorded IC50 below the cut-off of 300 nM?
Result: Not met

Query: Is IC50 strictly under 300 nM for the entry O=C(c1cnc(OCC2(C(F)(F)F)CC2)c(F)c1)N1CCN(c2nc3nc(Cl)ccc3o2)CC1 ?
Result: Met

Query: Could you please tell me whether IC50 recorded for Cc1ccc2oc(N3CCN(C(=O)c4ccc(-c5noc(C6(F)CC6)n5)cc4)CC3)nc2n1 is less than 300 nM?
Result: Not met

Query: Bench note: check whether Cc1ccc2oc(N3CCN(C(=O)c4cnc(N5CCC6(C5)CC6(F)F)nc4)CC3)nc2n1 (stereo not shown) shows IC50 below 300 nM
Result: Not met

Query: API: query returns whether the compound falls strictly under 300 nM in IC50. Query: Cc1ccc2oc(N3CCN(C(=O)c4ccc5nc(C6CCCCC6)oc5c4)CC3)nc2n1
Result: Met

Query: I'd appreciate it if you could check whether O=C(c1cnc(N2CCC3(C2)CC3(F)F)c(F)c1)N1CCN(c2nc3nc(Cl)ccc3o2)CC1 (stereo not shown) has IC50 smaller than 300 nM.
Result: Met

Query: Just wondering, is IC50 of Cc1ccc2oc(N3CCN(C(=O)c4ccc5nc(C6CC6)oc5c4)CC3)nc2n1 below 300 nM?
Result: Not met

Query: # strict comparison: is reported IC50 < 300 nM? input = Cc1ccc2oc(N3CCN(C(=O)c4c(F)cc(N5CC(OC(C)C(F)(F)F)C5)cc4F)CC3)nc2n1 (stereo not shown)
Result: Not met

Query: For this compound, is IC50 lower than 300 nM? Cc1ccc2oc(N3CCN(C(=O)c4cnc(N5CC(OC(C)C(F)(F)F)C5)c(Cl)c4)CC3)nc2n1 (stereo not shown)
Result: Met
